Provenance of the data: PubChem BioAssay

methodDescription: S. cerevisiae growth modulation with rapamycin, primary screen, strain BY4716, OD600, 96 h (AID 1091); also: test concentration not given here
cond: higher = more signal, called active from +8 up or from −8 down
Provide the reported z-score of each item.
Lab note: write the figure by itself, no unit.

Data request: Reported z-score for CC(C)OC(=O)CC(=O)CC(O)c1cccc(C#N)c1 (stereo not given) : what is it?
Data returned: -1.66

Data request: Reported z-score for NCCCCCCNC(=O)[C@@H]1C[C@@H]2C(=O)N3CCC[C@H]3C(=O)N2[C@@H]1c1ccc(O)cc1 : what is it?
Data returned: -0.476

Data request: Reported z-score for O=C1OCC=C[C@H]2OC34C=CCN(c5ccc(Cl)cc5)C(=O)[C@H]3N(CCCCCO)C(=O)[C@@H]4[C@@H]12 (stereo not given in full) : what is it?
Data returned: -0.497

Data request: Reported z-score for COC1(C)CN(Cc2ccccc2Br)[C@H](/C=C/c2ccccc2)[C@H](Cc2ccccc2)O1 (stereo not given in full) : what is it?
Data returned: 0.243

Data request: Reported z-score for O=C1c2ccccc2[C@](Cc2ccccc2I)(C(=O)NCc2ccccc2)[C@H](c2ccc(CO)cc2)N1C1CCCCC1 : what is it?
Data returned: -0.0677

====

methodDescription: COS7 lysate on small-molecule microarray, probe aHis, 635 nm (AID 1123);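 also: z-score combines 667nm fluorescence intensity with signal-to-noise per printed compound spot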
cond: COS7 cell lysate, fluorescence, higher = more signal
quantityKind: composite z-score

Data request: Reported composite z-score for COCCOC(=O)N1C(=O)[C@@]2(c3cc(C#CC4=CCCCC4)ccc31)[C@H](c1ccc(O)cc1)N1[C@H](c3ccccc3)[C@H](c3ccccc3)OC(=O)[C@H]1[C@@H]2C(=O)Nc1nc2ccccc2s1 : what is it?
Data returned: 2.78

Data request: Reported composite z-score for COC(=O)C[C@H]1O[C@]2(C(=O)N(C)c3ccccc32)[C@@H](C)[C@@H]1[Si](C)(C)c1ccc(C)cc1 : what is it?
Data returned: 0.311

Data request: Reported composite z-score for C[C@]1(C(=O)NCCN2CCOCC2)c2ccccc2C(=O)N(Cc2ccc(OC(F)(F)F)cc2)[C@H]1c1ccc(CO)cc1 : what is it?
Data returned: 2.43

Data request: Reported composite z-score for C=C[C@@H](C)[C@H](OC(=O)Nc1ccc(SC)cc1)c1ccc(OCCO)cc1 : what is it?
Data returned: 0.476

Data request: Reported composite z-score for Cc1ccc(S[C@]2(C(=O)NC(C)C)CC(=O)N(C3Cc4ccccc4C3)[C@@H]2c2ccc(CO)cc2I)cc1 : what is it?
Data returned: 3.04

Data request: Reported composite z-score for COCCOC(=O)N1C(=O)[C@@]2(c3cc(C#CC4=CCCCC4)ccc31)[C@H](C(=O)N1CCN(c3ncccn3)CC1)[C@H]1C(=O)O[C@H](c3ccccc3)[C@H](c3ccccc3)N1[C@@H]2c1ccc(O)cc1 : what is it?
Data returned: 1.09

Data request: Reported composite z-score for CCCCC(=C=CC[C@@H](O)c1ccc(OCCO)cc1)C[C@@H](O)COCc1ccccc1 : what is it?
Data returned: 0.173

====

System: Neuregulin-1 EGF-like domain
methodDescription: binders of neuregulin-1 EGF-like domain, primary screen, biochemical, small-molecule microarray, 635 nm fluorescence (AID 1081);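 also: binding of the protein to compounds printed on small-molecule microarray slides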
cond: small-molecule microarray binding, higher = more signal
quantityKind: composite z-score
Lab note: write the figure by itself, no unit.

Data request: Reported composite z-score for C=CCN1C(=O)[C@@]2(O[C@@H](CCO)[C@H]([Si](C)(C)c3ccc(OC)cc3)[C@H]2C)c2cc(N3C(=O)c4ccccc4Oc4ccccc43)ccc21 : what is it?
Data returned: 0.882

Data request: Reported composite z-score for NCCCCCCNC(=O)[C@@H]1C[C@@H]2C(=O)N3CCC[C@H]3C(=O)N2[C@@H]1c1ccc(O)cc1 : what is it?
Data returned: 1.18

Data request: Reported composite z-score for O=C(N1CCCCC1)[C@@]1(Cc2ccccc2)COC(c2ccc(OCCCO)cc2)=N1 : what is it?
Data returned: 1.25

Data request: Reported composite z-score for CCOC(=O)C[C@H]1[C@H](OC(=O)c2ccc(-c3ccccc3)cc2)[C@@H](NC(=O)c2ccc3ccccc3c2)c2cc(OCCCO)ccc2N1C(=O)c1ccc2ccccc2n1 : what is it?
Data returned: 0.15

Data request: Reported composite z-score for CN1C2C=C(CCCO)C(C3C(=O)N(C(N)=O)C(=O)C32)C1c1cccs1 (stereo not drawn) : what is it?
Data returned: 0.165

Data request: Reported composite z-score for O=C(NC1CC1)[C@@H]1c2ccccc2C(=O)N(Cc2ccccc2)[C@H]1c1ccc(CO)cc1 : what is it?
Data returned: 1.4

Data request: Reported composite z-score for CN1C(=O)C2C=CC(C(O)C3CCCCC3)N(N3CCCCC3)C2C1=O (stereo not drawn) : what is it?
Data returned: 1.23

Data request: Reported composite z-score for [N-]=[N+]=Nc1ccccc1C[C@]1(C(=O)NCc2ccccc2)N=C(c2ccc(OCCCO)cc2)O[C@H]1c1ccccc1 : what is it?
Data returned: 1.2
